Entries annotated with measured CC50
Test system: Vero E6 cells
TEST SUMMARY: Cytotoxicity, Cell Counting Kit-8, Vero E6 cells
Format: cell-based
STUDY CONDITIONS: African green monkey, 3 days
Procedure: Briefly, compounds at 2-fold serial dilutions were added to the respective cells (2.0×10^4/well) pre-seeded in 96-well plates. The cells were cultured at 37°C in the presence of 5% CO2 for 3 days, […] incubated with CCK8 solution, followed by measurement of absorbance at 450 nm (A450 value), using a microplate reader (Infinite F200PRO, Tecan, Morrisville, NC, USA). CC50 of compounds was calculated using the CalcuSyn program.
Give just the numeric value; µM need not be written.

The examples below pair each entry with its known result.
* Cc1cc2nc[nH]c2c(/N=C/c2c(O)c(O)c(C(C)C)c3cc(C)c(-c4c(C)cc5c(C(C)C)c(O)c(O)c(/C=N/c6c(C)c(C)cc7nc[nH]c67)c5c4O)c(O)c23)c1C [ST092971] | 72.1
* Cc1cc2c(C(C)C)c(O)c(O)c(C=O)c2c(O)c1-c1c(C)cc2c(C(C)C)c(O)c(O)c(C=O)c2c1O [Gossypol, reference compound] | 14.5
* Cc1cc2c(C(C)C)c(O)c(O)c(/C=N/NC(=O)C(C)C)c2c(O)c1-c1c(C)cc2c(C(C)C)c(O)c(O)c(/C=N/NC(=O)C(C)C)c2c1O [ST086273] | 50.5
* Cc1cc2c(C(C)C)c(O)c(O)c(/C=N/n3c(=O)[nH][nH]c3=O)c2c(O)c1-c1c(C)cc2c(C(C)C)c(O)c(O)c(/C=N/n3c(=O)[nH][nH]c3=O)c2c1O [ST087010] | 49.6

Continue with the molecule presented below.
*Q* Could you share which CC50 value was measured for Cc1cc2c(C(C)C)c(O)c(O)c3c2c(c1-c1c(C)cc2c(C(C)C)c(O)c(O)c4c2c1OC4N)OC3N (centres unmarked) [ST069299] ?
*A* 25.9

----------
Entries annotated with measured pIC50
Tested on: DENV-3-V1043
TEST SUMMARY: Plaque assay, inhibition of DENV-3 infection in LLC-MK2 cells
Format: cell-based
STUDY CONDITIONS: Dengue virus, DENV3
Please note pIC50 is a logarithmic value: minus log10 of concentration in mol/L. Answer with that number alone.

* Cc1cc2c(C(C)C)c(O)c(O)c(/C=N/n3c(=O)[nH][nH]c3=O)c2c(O)c1-c1c(C)cc2c(C(C)C)c(O)c(O)c(/C=N/n3c(=O)[nH][nH]c3=O)c2c1O [ST087010] | 5.48

*Q* Could you share which pIC50 value was measured for Cc1cc2c(C(C)C)c(O)c(O)c(C=O)c2c(O)c1-c1c(C)cc2c(C(C)C)c(O)c(O)c(C=O)c2c1O [Gossypol, reference compound] ?
*A* 5.47

----------
ASSAYED SYSTEM: ZIKV EDIII protein (Zika virus)
Sequence (A0A024B7W1 588-699): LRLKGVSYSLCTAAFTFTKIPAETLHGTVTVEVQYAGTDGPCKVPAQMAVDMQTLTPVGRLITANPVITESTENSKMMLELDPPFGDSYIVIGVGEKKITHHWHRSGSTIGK
READOUT LABEL: Kd (µM)
Give just the numeric value; µM need not be written.

*Q* Could you share which Kd value was measured for Cc1cc2c(C(C)C)c(O)c(O)c(/C=N/n3c(=O)[nH][nH]c3=O)c2c(O)c1-c1c(C)cc2c(C(C)C)c(O)c(O)c(/C=N/n3c(=O)[nH][nH]c3=O)c2c1O [ST087010] ?
*A* 4.95

----------
Test system: ZIKV human strain PAN2015
TEST SUMMARY: Plaque assay, inhibition of ZIKV infection (strain PAN2015)
Assay type: cell-based
STUDY CONDITIONS: Zika virus, Vero C1008, Vero E6 cells
READOUT LABEL: IC50 (µM)
Give just the numeric value; µM need not be written.

*Q* Could you share which IC50 value was measured for Cc1cc2c(C(C)C)c(O)c(O)c3c2c(c1-c1c(C)cc2c(C(C)C)c(O)c(O)c4c2c1OC4N)OC3N (stereo not shown) [ST069299] ?
*A* 2.3

*Q* Lookup Cc1cc2c(C(C)C)c(O)c(O)c(/C=N/n3c(=O)[nH][nH]c3=O)c2c(O)c1-c1c(C)cc2c(C(C)C)c(O)c(O)c(/C=N/n3c(=O)[nH][nH]c3=O)c2c1O [ST087010]
*A* 3.5

*Q* Lookup Cc1cc2c(C(C)C)c(O)c(O)c(/C=N/NC(=O)C(C)C)c2c(O)c1-c1c(C)cc2c(C(C)C)c(O)c(O)c(/C=N/NC(=O)C(C)C)c2c1O [ST086273]
*A* 5

*Q* Lookup Cc1cc2nc[nH]c2c(/N=C/c2c(O)c(O)c(C(C)C)c3cc(C)c(-c4c(C)cc5c(C(C)C)c(O)c(O)c(/C=N/c6c(C)c(C)cc7nc[nH]c67)c5c4O)c(O)c23)c1C [ST092971]
*A* 5

----------
ASSAYED SYSTEM: binding of ZIKV EDIII to EDIII-specific neutralizing mAbs (Zika virus)
Construct: EDIII (residues 298-409 in E protein containing a C-terminal human Fc tag); human Fc (C)
Sequence (A0A024B7W1 588-699): as above
TEST SUMMARY: ELISA competition assay, EDIII-mAb binding
STUDY CONDITIONS: IC50 blocking EDIII binding to mAb ZV-67, ELISA competition, mAb 0.5 μg/mL
READOUT LABEL: IC50 (µM)
Give just the numeric value; µM need not be written.

*Q* Give binding of ZIKV EDIII to EDIII-specific neutralizing mAbs (Zika virus) IC50 for "Cc1cc2c(C(C)C)c(O)c(O)c(/C=N/n3c(=O)[nH][nH]c3=O)c2c(O)c1-c1c(C)cc2c(C(C)C)c(O)c(O)c(/C=N/n3c(=O)[nH][nH]c3=O)c2c1O"
*A* 6.7

----------
TEST SUMMARY: Cytotoxicity, Cell Counting Kit-8, Vero E6 cells
Assay type: cell-based
STUDY CONDITIONS: African green monkey, Vero E6 cells, CCK8, 3 days; read-out: CC50 Vero E6
READOUT LABEL: CC50 at 3 days (µM)
Give just the numeric value; µM need not be written.

*Q* Could you share which CC50 at 3 days value was measured for Cc1cc2c(c(O)c1-c1c(C)cc3c(c1O)C(C=C1C(=O)NC(=O)NC1=O)C(=O)C(O)=C3C(C)C)C(C=C1C(=O)NC(=O)NC1=O)C(=O)C(O)=C2C(C)C (stereo not shown) [ST004335] ?
*A* 73.9

----------
Tested on: ZIKV human strain PAN2016 (2016/Panama)
TEST SUMMARY: Plaque assay, inhibition of ZIKV infection (strain PAN2016)
STUDY CONDITIONS: Zika virus, Vero C1008, in Homo sapiens, read-out: IC50 against infection of ZIKV PAN2016, plaque assay, Vero E6 cells
Protocol: After removal of the unbound compounds by centrifugation (after addition of 3% PEG-6000), ZIKV was incubated with Vero E6 cells in 24-well plates at 37°C for 1 h. The cells were then washed with PBS, overlaid with DMEM containing 1% carboxymethyl cellulose and 2% FBS, and cultured at 37°C for 4–5 days, followed by being stained with 0.5% crystal violet. […] Plaques in each well were calculated, and IC50 of compounds for each compound was calculated using the CalcuSyn computer program.
READOUT LABEL: IC50 (µM)
Give just the numeric value; µM need not be written.

The examples below pair each entry with its known result.
• Cc1cc2c(c(O)c1-c1c(C)cc3c(c1O)/C(=C/NCCO)C(=O)C(O)=C3C(C)C)/C(=C/NCCO)C(=O)C(O)=C2C(C)C [ST004331] = 35
• Cc1cc2c(c(O)c1-c1c(C)cc3c(c1O)C(C=C1C(=O)NC(=O)NC1=O)C(=O)C(O)=C3C(C)C)C(C=C1C(=O)NC(=O)NC1=O)C(=O)C(O)=C2C(C)C (stereo not drawn) [ST004335] = 27.4

Continue with the compound presented below.
*Q* Could you share which IC50 value was measured for Cc1cc2c(C(C)C)c(O)c(O)c(/C=N/n3c(=O)[nH][nH]c3=O)c2c(O)c1-c1c(C)cc2c(C(C)C)c(O)c(O)c(/C=N/n3c(=O)[nH][nH]c3=O)c2c1O [ST087010] ?
*A* 3.2

----------
System: ZIKV human strain PAN2016 (2016/Panama)
TEST SUMMARY: Plaque assay, inhibition of ZIKV infection (strain PAN2016)
STUDY CONDITIONS: Zika virus, Vero C1008, in Homo sapiens, read-out: IC50 against infection of ZIKV PAN2016, plaque assay, Vero E6 cells
Entries annotated with measured IC50
Express the reported value numerically, then name its unit.

• Cc1cc2c(C(C)C)c(O)c(O)c(C=O)c2c(O)c1-c1c(C)cc2c(C(C)C)c(O)c(O)c(C=O)c2c1O [Gossypol, reference compound] = 3.8 µM
• Cc1cc2c(C(C)C)c(O)c(O)c3c2c(c1-c1c(C)cc2c(C(C)C)c(O)c(O)c4c2c1OC4N)OC3N (centres unmarked) = 2.3 µM
• Cc1cc2c(C(C)C)c(O)c(O)c(/C=N/NC(=O)C(C)C)c2c(O)c1-c1c(C)cc2c(C(C)C)c(O)c(O)c(/C=N/NC(=O)C(C)C)c2c1O = 4.8 µM
• Cc1cc2c(c(O)c1-c1c(C)cc3c(c1O)/C(=C/NCc1cccnc1)C(=O)C(O)=C3C(C)C)/C(=C/NCc1cccnc1)C(=O)C(O)=C2C(C)C = 35 µM

Continue with the compound presented below.
*Q* Could you share which IC50 value was measured for "Cc1cc2nc[nH]c2c(/N=C/c2c(O)c(O)c(C(C)C)c3cc(C)c(-c4c(C)cc5c(C(C)C)c(O)c(O)c(/C=N/c6c(C)c(C)cc7nc[nH]c67)c5c4O)c(O)c23)c1C" ?
*A* 5 µM

Reference source for all entries: paper PMC9202104
